# tested-target: T1, human CD70 expressed on the cell surface of tumor cell lines (human, UniProt P32970 1-193); note: time not given here
# T1 sequence (looked up): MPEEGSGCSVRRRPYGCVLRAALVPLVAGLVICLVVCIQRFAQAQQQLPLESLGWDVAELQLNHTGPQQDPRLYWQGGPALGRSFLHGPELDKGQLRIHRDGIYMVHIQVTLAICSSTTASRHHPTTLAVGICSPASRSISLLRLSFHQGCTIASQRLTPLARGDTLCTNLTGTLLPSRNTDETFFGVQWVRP
# assay-comment: cell-based or functional assay
Exercise: for every item that follows, state its recorded Internalization rate (%) on Caki-1.
Give a bare numeral; the unit % is implied.

Exam item: // lookup Internalization rate (%) on Caki-1 for 69A7 (parent antibody), full IgG (antibody, V domains shown, also called parent antibody 69A7) VH: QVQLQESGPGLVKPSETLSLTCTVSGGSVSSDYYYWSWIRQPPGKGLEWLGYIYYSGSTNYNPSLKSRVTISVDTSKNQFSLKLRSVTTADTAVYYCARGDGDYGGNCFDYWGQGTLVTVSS VL: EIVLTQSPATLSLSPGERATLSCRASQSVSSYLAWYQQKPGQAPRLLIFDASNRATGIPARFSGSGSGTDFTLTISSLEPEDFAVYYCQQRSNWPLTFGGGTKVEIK
Marked response: 27

Exam item: // lookup Internalization rate (%) on Caki-1 for 2E7, full IgG (antibody, V domains shown) VH: QVQLQESGPGLVKPSETLSLTCTVSGGSVSSDYYYWSWIRQPPGKGLEWLGYIYYSGSTNYNPSLKSRVTISVDTSKNQFSLKLRSVTTADTAVYYCARGDGDFLGVCFDYWGQGTLVTVSS VL: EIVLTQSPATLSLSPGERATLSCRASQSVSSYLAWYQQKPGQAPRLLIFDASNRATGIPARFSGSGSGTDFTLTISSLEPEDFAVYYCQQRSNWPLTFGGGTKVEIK
Marked response: 51
